Value source: patent US10155021B2

- System: A. baumannii A473
- PROCEDURE_SUMMARY: MIC without and with sub-inhibitory polymyxin B (Example 4)
- Type: cell-based, Acinetobacter baumannii
- TEST_CONTEXT: Acinetobacter baumannii, A473, A. baumannii A473; without polymyxin B; 2nd experiment; visual reading; read-out: MIC without PB
RECORDED_METRIC: MIC

Observe how each entry below is paired with its result.
| COMPOUND | TEST_RESULT |
| --- | --- |
| C[C@@H](O)[C@H]1C(=O)N2C(C(=O)O)=C(SCCN=CN)C[C@H]12 [Imipenem, reference compound] | 32 µg/mL |
| Cc1c(-c2ccc(N)c(F)c2)ccn2c(=O)c(C(=O)O)cc(C3CC3)c12 [Compound 1] | 8 µg/mL |
| Cc1c(-c2ccc(N)cc2)c(F)cn2c(=O)c(C(=O)O)cc(C3CC3)c12 [Compound 7] | 4 µg/mL |
| Cc1c(-c2ccc(N)cc2)ccn2c(=O)c(C(=O)O)cc(C3CC3)c12 [Compound 8] | 4 µg/mL |
| Cc1c(-c2ccc(CN)cc2)ccn2c(=O)c(C(=O)O)cc(C3CC3)c12 [Compound 5] | 8 µg/mL |

Q: Endpoint output: MIC of C[C@@H](O)[C@H]1C(=O)N2C(C(=O)O)=C(S[C@@H]3CN[C@H](C(=O)N(C)C)C3)[C@H](C)[C@H]12 [Meropenem, reference compound] . Value?
A: 16 µg/mL

Q: Would you mind telling me what MIC value was observed for Cc1c(-c2cc(Cl)c(N)c(Cl)c2)ccn2c(=O)c(C(=O)O)cc(C3CC3)c12 [Compound 3] ?
A: 8 µg/mL

Q: Sample Cc1c(-c2cc(F)c(N)cc2F)ccn2c(=O)c(C(=O)O)cc(C3CC3)c12 [Compound 2] — what was its MIC?
A: 4 µg/mL

---

Catalogue of compounds with associated MIC
- System: A. baumannii A489
- PROCEDURE_SUMMARY: MIC determination for Acinetobacter strains (Example 3)
- Type: cell-based
- TEST_CONTEXT: LEV R, CIP R, MRP R, IMP R, AMK R, TET R
Supply the numeric figure in mg/L, leaving out any unit text.

| COMPOUND | UNITS_OF_MEASURE | MIC |
| --- | --- | --- |
| C[C@@H](O)[C@H]1C(=O)N2C(C(=O)O)=C(SCCN=CN)C[C@H]12 [Imipenem, reference compound] | mg/L | 128 |

Q: Form field: reported MIC of COc1c(N2C[C@@H]3CCCN[C@@H]3C2)c(F)cc2c(=O)c(C(=O)O)cn(C3CC3)c12 [Moxifloxacin, reference compound]
A: 16

Q: Record request: MIC value, item Cc1c(-c2ccc(N)c(F)c2)ccn2c(=O)c(C(=O)O)cc(C3CC3)c12
A: 4

Q: Return reported MIC; argument: Cc1c(-c2ccc(N)cc2)c(F)cn2c(=O)c(C(=O)O)cc(C3CC3)c12
A: 8

Q: State the recorded MIC for this entry: Cc1c(-c2cc(Cl)c(N)c(Cl)c2)ccn2c(=O)c(C(=O)O)cc(C3CC3)c12
A: 4

Q: Dear colleague, I am looking for the recorded MIC of the following compound: C[C@@H](O)[C@H]1C(=O)N2C(C(=O)O)=C(S[C@@H]3CN[C@H](C(=O)N(C)C)C3)[C@H](C)[C@H]12 [Meropenem, reference compound]
A: 16

Q: Form field: reported MIC of Cc1c(-c2cc(F)c(N)cc2F)ccn2c(=O)c(C(=O)O)cc(C3CC3)c12
A: 2

---

- System: A. baumannii A390
- PROCEDURE_SUMMARY: MIC without and with sub-inhibitory polymyxin B (Example 4)
- Assay type: cell-based, Acinetobacter baumannii
- TEST_CONTEXT: Acinetobacter baumannii, A390, A. baumannii A390; without polymyxin B; 2nd experiment; visual reading; read-out: MIC without PB
Recorded measurements of MIC, one per entry
Use µg/mL as the unit, but write only the number.

The examples below pair each entry with its known result.
| COMPOUND | TEST_RESULT |
| --- | --- |
| Cc1c(-c2ccc(CN)cc2)ccn2c(=O)c(C(=O)O)cc(C3CC3)c12 | 8 |
| C[C@@H](O)[C@H]1C(=O)N2C(C(=O)O)=C(SCCN=CN)C[C@H]12 [Imipenem, reference compound] | 16 |
| COc1c(N2C[C@@H]3CCCN[C@@H]3C2)c(F)cc2c(=O)c(C(=O)O)cn(C3CC3)c12 [Moxifloxacin, reference compound] | 16 |

Q: Can you look up MIC on A. baumannii A390 for Cc1c(-c2ccc(N)cc2)ccn2c(=O)c(C(=O)O)cc(C3CC3)c12 ?
A: 16

Q: Quick check: MIC on A. baumannii A390, item C[C@@H](O)[C@H]1C(=O)N2C(C(=O)O)=C(S[C@@H]3CN[C@H](C(=O)N(C)C)C3)[C@H](C)[C@H]12 [Meropenem, reference compound] ?
A: 32

Q: Item Cc1c(-c2ccc(N)c(F)c2)ccn2c(=O)c(C(=O)O)cc(C3CC3)c12 with A. baumannii A390 - MIC?
A: 16

---

- Tested on: S. aureus ATCC 25923
- PROCEDURE_SUMMARY: MIC, selected panel of Gram-positive and Gram-negative strains (Example 5)
- Type: cell-based
- TEST_CONTEXT: Staphylococcus aureus, ATCC25923, read-out: MIC S. aureus ATCC 25923
Label rule met when MIC < 0.02 µg/mL; otherwise rule not met.

These solved cases illustrate the format of a correct answer.
| MOLECULE | TEST_SYSTEM | ANSWER_LABEL |
| --- | --- | --- |
| Cc1c(C2=CCNCC2)c(F)cn2c(=O)c(C(=O)[O-])cc(C3CC3)c12.[K+] [Compound 62K salt] | S. aureus ATCC 25923 | rule not met |
| Cc1c(-c2ccncc2F)ccn2c(=O)c(C(=O)[O-])cc(C3CC3)c12.[K+] [Compound 58K salt] | S. aureus ATCC 25923 | rule not met |
| Cc1c(-c2ccc3[nH]cnc3c2)ccn2c(=O)c(C(=O)[O-])cc(C3CC3)c12.[K+] [Compound 74K salt] | S. aureus ATCC 25923 | rule met |
| Cc1c(-c2ccc(N)nc2)c(F)cn2c(=O)c(C(=O)[O-])cc(C3CC3)c12.[K+] [Compound 60K salt] | S. aureus ATCC 25923 | rule met |
| COc1cc(-c2ccn3c(=O)c(C(=O)[O-])cc(C4CC4)c3c2C)ccc1O.[K+] [Compound 66K salt] | S. aureus ATCC 25923 | rule met |

Q: Does this molecule meet the criterion MIC < 0.02 µg/mL? CC(=O)NCc1ccc(-c2ccn3c(=O)c(C(=O)[O-])cc(C4CC4)c3c2C)cc1.[K+] [Compound 64K salt]
A: rule not met

Q: Please indicate whether the reported MIC of Cc1c(-c2ccc3c(c2)C(=O)NC3)ccn2c(=O)c(C(=O)[O-])cc(C3CC3)c12.[K+] [Compound 68K salt] is strictly below 0.02 µg/mL.
A: rule met

---

Measured MIC values are reported for all entries that follow.
- System: A. baumannii A473
- PROCEDURE_SUMMARY: MIC without and with sub-inhibitory polymyxin B (Example 4)
- Assay type: cell-based, Acinetobacter baumannii
- TEST_CONTEXT: Acinetobacter baumannii, A473, A. baumannii A473; without polymyxin B; 1st experiment; read-out: MIC without PB
The figure you give is taken to be in µg/mL; do not add the unit.

Q: Please look up its MIC: C[C@@H](O)[C@H]1C(=O)N2C(C(=O)O)=C(S[C@@H]3CN[C@H](C(=O)N(C)C)C3)[C@H](C)[C@H]12 [Meropenem, reference compound]
A: 16

---

- Test system: A. baumannii A472
- PROCEDURE_SUMMARY: Preliminary MBC without and with sub-inhibitory polymyxin B (Example 4)
- Format: cell-based, Acinetobacter baumannii
- TEST_CONTEXT: Acinetobacter baumannii, A472, A. baumannii A472, without polymyxin B, 1st experiment, read-out: MBC without PB
Listing of entries alongside the reported MBC.
Write the numeric value and append its unit.

Consider the reported MBC for these compounds:
| COMPOUND | MBC |
| --- | --- |
| Cc1c(-c2ccc(N)c(F)c2)ccn2c(=O)c(C(=O)O)cc(C3CC3)c12 | 8 µg/mL |
| Cc1c(-c2ccc(N)cc2)c(F)cn2c(=O)c(C(=O)O)cc(C3CC3)c12 | 4 µg/mL |
| C[C@@H](O)[C@H]1C(=O)N2C(C(=O)O)=C(SCCN=CN)C[C@H]12 [Imipenem, reference compound] | 16 µg/mL |
| C[C@@H](O)[C@H]1C(=O)N2C(C(=O)O)=C(S[C@@H]3CN[C@H](C(=O)N(C)C)C3)[C@H](C)[C@H]12 [Meropenem, reference compound] | 8 µg/mL |
| Cc1c(-c2ccc(N)c(F)c2)c(F)cn2c(=O)c(C(=O)O)cc(C3CC3)c12 | 4 µg/mL |

Please examine the following record next.
Q: State the recorded MBC for this entry: Cc1c(-c2cc(F)c(N)cc2F)ccn2c(=O)c(C(=O)O)cc(C3CC3)c12
A: 4 µg/mL
